Target: Tyrosine-protein kinase ITK/TSK (Homo sapiens, UniProt Q08881)
Sequence (Q08881 whole entry): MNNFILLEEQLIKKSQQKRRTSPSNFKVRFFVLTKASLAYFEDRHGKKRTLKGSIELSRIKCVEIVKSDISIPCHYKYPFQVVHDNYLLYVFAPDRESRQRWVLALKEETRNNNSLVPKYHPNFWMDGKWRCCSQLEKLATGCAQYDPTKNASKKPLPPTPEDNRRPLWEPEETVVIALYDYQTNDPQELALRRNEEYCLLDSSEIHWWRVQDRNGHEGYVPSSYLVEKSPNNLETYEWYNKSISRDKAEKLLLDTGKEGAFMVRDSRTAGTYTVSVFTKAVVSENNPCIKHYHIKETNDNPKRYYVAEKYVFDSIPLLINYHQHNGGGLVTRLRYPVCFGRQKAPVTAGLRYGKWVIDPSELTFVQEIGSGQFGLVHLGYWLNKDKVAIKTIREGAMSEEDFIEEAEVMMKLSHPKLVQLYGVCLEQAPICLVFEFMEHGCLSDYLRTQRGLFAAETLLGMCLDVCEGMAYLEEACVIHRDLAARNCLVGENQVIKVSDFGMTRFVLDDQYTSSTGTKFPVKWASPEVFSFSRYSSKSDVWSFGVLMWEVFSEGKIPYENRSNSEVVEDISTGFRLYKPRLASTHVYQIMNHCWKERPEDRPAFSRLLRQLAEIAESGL

SMILES_STRUCTURE: COc1cccc(-n2c(=O)c(C(=O)Nc3ccc(-c4nc(-c5ccnc(N6CC(OC)C6)c5)cnc4N)nc3)c(C)n2C)c1
IC50: < 4 nM

* * *

Let's look at some molecules and their measured CL/F.
Experiment: Clearance in Balb/c mouse at 10 mg/kg, ip measured upto 24 hrs by LC-MS/MS analysis
Format: ADME, organism-based
Conditions: in vivo

MOLECULE: CN(CCCCCC(=O)Nc1ccc2c(c1)C(=O)N(C1CCC(=O)NC1=O)C2=O)CC[C@@H](c1ccccc1)n1cc(NC(=O)c2n[nH]c3c2CCC(C)(C)C3)cn1.O=C(O)C(F)(F)F (some centres not stated)
CL/F, mL/min/kg: 109
--
MOLECULE: CC1(C)CCc2c(C(=O)Nc3cnn([C@@H](CCN4CCN(CCC5CCN(c6ccc7c(c6)C(=O)N(C6CCC(=O)NC6=O)C7=O)CC5)CC4)c4ccccc4)c3)n[nH]c2C1.O=C(O)C(F)(F)F (some centres not stated)
CL/F, mL/min/kg: 6.1
